Reported Kd is given for each of the following binders.
Target: T1, PUF4 RNA-binding domain (Saccharomyces cerevisiae, UniProt P25339 537-888)
T1 sequence: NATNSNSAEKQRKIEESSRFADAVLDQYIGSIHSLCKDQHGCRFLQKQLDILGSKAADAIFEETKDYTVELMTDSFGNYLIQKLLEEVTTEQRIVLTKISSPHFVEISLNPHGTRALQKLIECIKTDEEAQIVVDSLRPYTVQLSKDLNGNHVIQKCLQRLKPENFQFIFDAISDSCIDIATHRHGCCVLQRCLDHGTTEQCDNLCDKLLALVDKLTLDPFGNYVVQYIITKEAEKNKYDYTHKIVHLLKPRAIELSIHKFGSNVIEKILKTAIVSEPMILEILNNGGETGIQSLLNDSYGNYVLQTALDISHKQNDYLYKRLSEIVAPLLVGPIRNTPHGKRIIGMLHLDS
Assay: Mg; RNA-MaP; 20 mM Na-HEPES pH 7.4, 30 mM KOAc, 0.75 mM MgCl2, 0.1% Tween-20, 5% glycerol, 0.1 mg/mL BSA, 2 mM DTT; 25 C; 0.0125-409.6 nM protein
Conditions: tags: N-His6-TEV cleaved; C-SNAP kept, Cy3B-labelled; label: tethered on chip by stalled RNA polymerase

>  <binder>
UCUCUUUGUACCAUGUCUCUU (ssRNA) [Ic_S1_P4E.1_K4.1_C4.1_H4.1_A4.1_[T5C]_[A6C]_[T7A]_F4.1_[A9G]_T4.1]

>  <Kd (nM)>
3.4

$$$$
>  <binder>
UCUCUUUGUAAUAAUUUCUCUU (ssRNA) [Ic_S1_P5E.1_K5.1_C5.1_H5.1_A5.1_[T5A]_F5.1_[T8A]_[A10T]_T5.1]

>  <Kd (nM)>
324

$$$$
>  <binder>
Ic_S2_P5E.1_K5.1_C5.1_H5.1_A5.1_[T6C]_[A7G]_F5.1_[T8C]_[T9C]_T5.1 (ssRNA) RNA: UUUGAUUAAUAUGAUAUCGUUCUUUCUUGUAUCGCCAUUCUUUCUCGAUAUCAUAUUAAUCUUU

>  <Kd (nM)>
844

$$$$
